- experimental target: Beta-secretase 1 (Homo sapiens, UniProt P56817)
- Sequence (P56817 whole entry): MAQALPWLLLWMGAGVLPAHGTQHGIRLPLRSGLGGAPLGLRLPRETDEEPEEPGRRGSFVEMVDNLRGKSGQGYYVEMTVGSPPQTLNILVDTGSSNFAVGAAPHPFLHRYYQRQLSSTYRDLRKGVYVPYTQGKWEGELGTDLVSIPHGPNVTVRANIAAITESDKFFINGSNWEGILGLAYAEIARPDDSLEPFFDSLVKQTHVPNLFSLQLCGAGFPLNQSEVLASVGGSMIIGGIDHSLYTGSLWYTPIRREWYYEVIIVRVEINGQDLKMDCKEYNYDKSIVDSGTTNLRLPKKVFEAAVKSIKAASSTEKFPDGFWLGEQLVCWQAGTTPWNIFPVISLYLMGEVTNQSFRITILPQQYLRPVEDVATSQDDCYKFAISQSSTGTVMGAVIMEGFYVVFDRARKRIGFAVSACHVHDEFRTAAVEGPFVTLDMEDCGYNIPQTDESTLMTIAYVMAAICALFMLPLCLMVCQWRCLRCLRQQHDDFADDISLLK
recorded endpoint: IC50 (µM)
Value expressed in µM; do not type the unit.

molecule: CC(=O)N[C@@H](CCC(=O)O)C(=O)N[C@@H](Cc1ccccc1)[C@@H](O)CC(=O)N[C@@H](CC1CCCCC1)[C@@H](O)CC(=O)N[C@H](C(=O)NCc1ccc(C(=O)O)cc1)C(C)C
IC50, µM: 42
--
molecule: CCC(C)C[C@H](NC(=O)C[C@H](O)[C@H](Cc1ccccc1)NC(=O)[C@H](CC(C)C)NC(C)=O)[C@@H](O)CC(=O)N[C@H](C(=O)NCc1ccc(C(=O)O)cc1)C(C)C (stereo partly drawn)
IC50, µM: 0.65

In the following, a different molecule is considered.
Per the record, CC(=O)NCC(=O)N[C@@H](Cc1ccccc1)[C@@H](O)CC(=O)N[C@@H](CC1CCCCC1)[C@@H](O)CC(=O)N[C@H](C(=O)NCc1ccc(C(=O)O)cc1)C(C)C has IC50 of 9
